The measurements presented in this section are drawn from ChEMBL document CHEMBL2218924.

- target system: Ribosomal protein S6 kinase alpha-1 (Homo sapiens)
- particulars: at 10 µM
endpoint: residual activity (%)
Please respond with the number in % and leave the unit unwritten.

Field residual activity (entry "CN(C)CCCn1cc(C2=C(c3c[nH]c4ccccc34)C(=O)NC2=O)c2ccccc21" ) reads 2

Sample "CC(=O)c1ccc(N2CCOCC2)cc1O" ; residual activity observed: 110

Form field residual activity, entry "CC(=O)O/N=C1\C(=C2\C(=O)Nc3cc(Br)ccc32)Nc2ccccc21" : 59

Looking up "O=c1cc(-c2cccc3c2Sc2ccccc2S3)oc(N2CCOCC2)c1" , I found its residual activity recorded as 94

"Nc1n[nH]c2nnc(-c3c(-c4ccccc4)nn4ccccc34)cc12" yielded residual activity of 93

The measured residual activity associated with "C[C@@H](N)[C@H]1CC[C@H](C(=O)Nc2ccncc2)CC1" reads 48

For record "Cc1ccc(NC2=CC(=O)c3sc(C)nc3C2=O)cc1" the listed residual activity is 78

get_value(item= "Cn1cc(/C=C2\C(=O)Nc3ccc(S(N)(=O)=O)cc32)c2ccccc21" , readout=residual activity) returns 6

Summary for this molecule, "COc1ccc(OC)c2c(=S)c3ccccc3[nH]c12" : residual activity is 106

Value of measured residual activity for the entry "Oc1n[nH]c2nnc(-c3c(-c4ccccc4)nn4ccccc34)cc12" : 111

So, "Ic1cccc(CSc2nnc(-c3ccncc3)o2)c1" ? Its residual activity was 46
